molecular target: T1, HU-RAGE-SA (human, UniProt Q15109 23-342); experiment: BIAcore kd against parental M4 scFv-Fc
T1 construct: extracellular domain; Directly immobilized on a CM5 chip (~100 RU); also called hRAGE-SA; soluble human streptavidin-tagged RAGE; not shown: streptavidin tag (SA)
T1 sequence (Q15109 23-342): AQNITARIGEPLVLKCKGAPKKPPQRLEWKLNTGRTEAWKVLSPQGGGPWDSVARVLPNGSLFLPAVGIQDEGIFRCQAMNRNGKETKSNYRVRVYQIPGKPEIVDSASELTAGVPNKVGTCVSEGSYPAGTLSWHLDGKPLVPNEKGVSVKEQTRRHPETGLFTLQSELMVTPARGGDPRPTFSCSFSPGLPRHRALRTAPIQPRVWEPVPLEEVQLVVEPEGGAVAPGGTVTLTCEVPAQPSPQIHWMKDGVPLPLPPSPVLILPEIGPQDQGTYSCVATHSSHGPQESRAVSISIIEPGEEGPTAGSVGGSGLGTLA
value_kind: Fold change in kd (fold)

binder	unit_of_measure	quantitative_result
6C3 scFv-Fc fusion (Fc fusion, not shown: wild-type human IgG Fc (hinge and constant domains)) DIQMTQSPSSLSASVGDRVTITCRASQDVGIYVNWFQQKPGKAPRRLIYRATNLADGVPSRFSGSRSGTDFTLTISSLQPEDFATYYCLEFDEHPLTFGGGTKVEIKDGGGSGGGGSGGGGSSEVQLVESGGGLVQPGGSLRLSCAASGFTFNNYWMTWVRQAPGKGLEWVASIDNSGDNTYYPDSVKDRFTISRDNAKNSLYLQMNSLRAEDTAVYYCARGGDITLGLDVWGQGTLVTVSS	fold	60
3A6 scFv-Fc fusion (Fc fusion, not shown: wild-type human IgG Fc (hinge and constant domains)) DIQMTQSPSSLSASVGDRVTITCRASQDVGIYVNWFQQKPGKAPRRLIYRATNLADGVPSRFSGSRSGTDFTLTISSLQPEDFATYYCLEFDEHPLTFGGGTKVEIKDGGGSGGGGSGGGGSSEVQLVESGGGLVQPGGSLRLSCAASGFTFNNYWMTWVRQAPGKGLEWVASIDNSGDNTYYPDSVKDRFTISRDNAKNSLYLQMNSLRAEDTAVYYCARGGDILVSLDVWGQGTLVTVSS	fold	33.8
